# assayTarget: human sphingosine-1-phosphate receptor 1 (S1P1) (Homo sapiens)
# Sequence (P21453 whole entry): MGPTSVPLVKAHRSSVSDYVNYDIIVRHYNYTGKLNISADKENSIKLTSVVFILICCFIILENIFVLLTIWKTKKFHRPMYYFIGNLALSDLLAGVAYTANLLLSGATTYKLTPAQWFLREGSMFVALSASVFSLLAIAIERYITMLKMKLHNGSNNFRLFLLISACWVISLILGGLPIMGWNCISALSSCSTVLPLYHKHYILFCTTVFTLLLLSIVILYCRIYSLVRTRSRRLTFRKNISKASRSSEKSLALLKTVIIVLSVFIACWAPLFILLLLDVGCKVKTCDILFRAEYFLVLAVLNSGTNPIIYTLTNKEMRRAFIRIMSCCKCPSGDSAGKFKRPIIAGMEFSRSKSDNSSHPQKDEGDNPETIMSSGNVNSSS
# testProtocol: Inhibition of cAMP production (HTRF cAMP HiRange), S1P1 CHO-K1 cells
# Type: cell-based
# appliedConditions: inhibition of cAMP production, S1P1; read-out: hS1P1 CAMP pEC50 (converted)
Consider the following compounds; for each one, report its EC50.

Ask | Need EC50 of CCC1(CC)CC(=O)c2cc(-c3nc(-c4ccc[nH]4)no3)ccc2O1 , thanks.
Reply | < 0.316 µM

Ask | Need EC50 of CC(F)(F)CNc1ccc(-c2nnc(-c3ccc4[nH]cnc4c3)o2)cc1C#N , thanks.
Reply | < 0.316 µM

Ask | Need EC50 of Cc1ccncc1-c1noc(-c2ccc3ccsc3n2)n1 , thanks.
Reply | > 0.316 µM

Ask | Need EC50 of CCC1(CC)CC(=O)c2cc(-c3nc(-c4cncc(C(N)=O)c4)no3)ccc2O1 , thanks.
Reply | < 0.316 µM

Ask | Need EC50 of CC(C)n1ccc2cc(-c3noc(-c4ccccc4C(F)(F)F)n3)ccc21 , thanks.
Reply | < 0.316 µM

Ask | Need EC50 of CCC1(CC)CC(=O)c2cc(-c3nc(-c4ccncn4)no3)ccc2O1 , thanks.
Reply | > 0.316 µM

Ask | Need EC50 of CCC1(CC)CC(=O)c2cc(-c3nc(-c4ccnc(N)c4)no3)ccc2O1 , thanks.
Reply | < 0.316 µM

Ask | Need EC50 of CCC1(CC)CC(=O)c2cc(-c3nc(-c4ncccn4)no3)ccc2O1 , thanks.
Reply | > 0.316 µM

====

# assayTarget: UniProtKB P21453
# testProtocol: Inhibition of cAMP production (HTRF cAMP HiRange), S1P1 CHO-K1 cells
# Type: cell-based
# appliedConditions: inhibition of cAMP production, S1P1; read-out: hS1P1 CAMP pEC50 (converted)
measureName: EC50

Ask | Notebook entry, UniProtKB P21453 assay: EC50 of CC(C)(CO)Cn1nnc2cc(-c3noc(-c4cnccc4C(F)(F)F)n3)ccc21 [Compound 529] = ?
Reply | > 0.316 µM

Ask | Notebook entry, UniProtKB P21453 assay: EC50 of N#Cc1cc(-c2nnc(-c3ccc4[nH]c(=O)oc4c3)o2)ccc1NCC1CC1 [Compound 486] = ?
Reply | < 0.316 µM

Ask | Notebook entry, UniProtKB P21453 assay: EC50 of CC(C)Nc1ccc(-c2nc(-c3ccc4c(c3)NC(=O)CC4)no2)cc1C#N [Compound 435] = ?
Reply | < 0.316 µM

Ask | Notebook entry, UniProtKB P21453 assay: EC50 of CC(C)n1nnc2cc(-c3nc(-c4nccn4C)no3)ccc21 [Compound 569] = ?
Reply | > 0.316 µM

Ask | Notebook entry, UniProtKB P21453 assay: EC50 of COc1cccc(-c2csc(-c3ccc4c(ccn4C(C)C)n3)n2)c1 [Compound 410] = ?
Reply | > 0.316 µM

Ask | Notebook entry, UniProtKB P21453 assay: EC50 of CC(=O)Nc1ccccc1-c1coc(-c2ccc3c(c2)nnn3C(C)C)n1 [Compound 458] = ?
Reply | > 0.316 µM

Ask | Notebook entry, UniProtKB P21453 assay: EC50 of CCC1(CC)CC(=O)c2cc(-c3nc(-c4ccc5[nH]c(=O)oc5c4)no3)ccc2O1 [Compound 445] = ?
Reply | < 0.316 µM

Ask | Notebook entry, UniProtKB P21453 assay: EC50 of Cc1ccncc1-c1nc(-c2ccc3c(c2)nnn3C(C)(C)CO)no1 [Compound 625] = ?
Reply | > 0.316 µM

Ask | Notebook entry, UniProtKB P21453 assay: EC50 of Cc1cccc2nc(-c3ccc4c(c3)nnn4C(C)C)oc12 [Compound 421] = ?
Reply | > 0.316 µM

Ask | Notebook entry, UniProtKB P21453 assay: EC50 of CC(C)(O)Cn1nnc2cc(-c3nc(-c4ccc5nonc5c4)no3)ccc21 [Compound 590] = ?
Reply | > 0.316 µM

Ask | Notebook entry, UniProtKB P21453 assay: EC50 of CCC1(CC)CC(=O)c2cc(-c3nc(-c4ccc5[nH]c(=O)[nH]c5c4)no3)ccc2O1 [Compound 539] = ?
Reply | < 0.316 µM

Ask | Notebook entry, UniProtKB P21453 assay: EC50 of Cc1ccc2oc(-c3ccc4c(c3)nnn4C(C)C)nc2c1 [Compound 419] = ?
Reply | < 0.316 µM
